FYI, the data here is from PubChem BioAssay AID504336.

assay: TOR branch reporter RPL19A-GFP response – cell-based, S. cerevisiae, third cherry pick, flow cytometry, confirmation (AID 504336);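 further: median GFP fluorescence of all gated yeast cells by flow cytometry; ratio of well median fluorescence to plate mean of DMSO wells with DMSO = 100%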
experimental context: S. cerevisiae RPL19A-GFP strain, 3 h, at 10 µM, hits give low values
Reported GFP response relative to DMSO by item:
Answer with a number only, understood to be in %.

Guide cases for GFP response relative to DMSO, answers given:
* CCCC(=O)Nn1cnc2c(c1=O)C1(CCCCC1)Cc1ccccc1-2 | 103
* COc1ccc(N/C(C)=C/C(=O)c2ccccc2)cc1 | 102

Provide GFP response relative to DMSO value for the following compound: `Cn1c(NCCCO)nc2c(c1=O)C1(CCCCC1)Cc1ccccc1-2` 102

Provide GFP response relative to DMSO value for the following compound: `O=C(O)CCCCCNc1ncnc2ccc(Br)cc12` 99.8

Provide GFP response relative to DMSO value for the following compound: `C/C(=C\C(=O)c1ccc(C)cc1)Nc1cccc(O)c1` 99.3

Provide GFP response relative to DMSO value for the following compound: `CCN(CC)C(=O)Oc1cc(=O)n(C)c2ccccc12` 99.8

Provide GFP response relative to DMSO value for the following compound: COc1cccc(OCc2cc(C(=O)N3CCN(C)C(c4ccccc4)C3)no2)c1 (stereo unspecified) 96.5

Provide GFP response relative to DMSO value for the following compound: `CCc1c(C)nc2c(OC)cccc2c1Cl` 102

Provide GFP response relative to DMSO value for the following compound: `CC1=CN2C(=N)/C(=C/c3ccco3)C(=O)N=C2S1` 106

Provide GFP response relative to DMSO value for the following compound: `Cc1cc(C)c2ccc(C(=O)O)nc2c1O` 98.5

Provide GFP response relative to DMSO value for the following compound: `COc1ccc(NC(=O)O/N=C2/CCCc3ccc(OC)cc32)cc1` 104

Provide GFP response relative to DMSO value for the following compound: `CC1=CN2C(=N)/C(=C/c3ccc(C)o3)C(=O)N=C2S1` 101

Provide GFP response relative to DMSO value for the following compound: `COc1cccc2c(Cl)c(CCCl)c(C)nc12` 99.3
